Origin of values: ChEMBL document CHEMBL4513216

# reported cytotoxicity at 10 µM; entries follow
- assay: Toxicity liver stage against HepG2, at 10uM
- Type: cell-based
- Set-up: test concentration 10 uM, cell line HepG2-A16-CD81EGFP
- test context: human, HepG2-A16-CD81EGFP cells; read-out: INHIBITION

Previously resolved entries follow.
compound	observed property	test result
CCOCC1CN(C(=O)c2cnccn2)Cc2cnn(CC3CC3)c21 (stereo not drawn)	cytotoxicity at 10 µM	-69.6%
CCCNC(=O)C1CCCN(c2ccc3nncn3n2)C1 (stereo not drawn)	cytotoxicity at 10 µM	10.7%
COC(=O)c1cc2c(OC)c(OC)c(OC)cc2[nH]1	cytotoxicity at 10 µM	-0.555%
CN(C)CCCNC(=O)CNC(=O)N1CCc2c([nH]c3ccccc23)C1	cytotoxicity at 10 µM	3.33%
Cc1cc(C)c2nc(CN3CC[C@@H](O)C3)cc(O)c2c1	cytotoxicity at 10 µM	-6.23%

INPUT: Data request, read-out cytotoxicity at 10 µM, for `Cc1cccc(C(=O)N2CCn3cnc(COCC4CC4)c3C2)c1`
OUTPUT: 14%

INPUT: Dear colleague, I am looking for the recorded cytotoxicity at 10 µM of the following compound: `CC(=O)c1cc(CN2C[C@@H]3CC[C@H]2CN(S(=O)(=O)N(C)C)C3)cs1`
OUTPUT: -8.19%

INPUT: Item under review: `CCN(CC)Cc1cc(C(=O)N2CC(C)(C)[C@@](C)(O)C2)c(C)o1` . Reported cytotoxicity at 10 µM?
OUTPUT: 1.07%

INPUT: Quick check: cytotoxicity at 10 µM of `Cn1nc(C2CC2)cc1C(=O)N1CCC(c2nnsc2S(C)(=O)=O)CC1` ?
OUTPUT: -0.81%

INPUT: // lookup cytotoxicity at 10 µM for `CN(CCCOc1ccc(F)cc1)S(=O)(=O)c1cnn(C)c1`
OUTPUT: -0.336%

INPUT: Recorded cytotoxicity at 10 µM for `Cc1ccc(CN2CCN(c3cncc(N(C)C)n3)CC2=O)cc1C` , please?
OUTPUT: -2.53%

INPUT: Field request: cytotoxicity at 10 µM | item: `CN(C(=O)c1ccccn1)c1nc2c(s1)CCc1c-2cnn1C`
OUTPUT: 11.7%

INPUT: // cytotoxicity at 10 µM lookup, key: `CCn1cc(CN2CCCn3nc(CNC(=O)C4CCC4)cc3C2)cn1`
OUTPUT: -11.6%

INPUT: So what's the measured cytotoxicity at 10 µM for this one? `CC(C)c1cc(CN2CCC(N)CC2)no1`
OUTPUT: -8.24%

INPUT: Fill blank: measured cytotoxicity at 10 µM of the compound CNC(=O)c1ccc(C2CCCN(C(=O)c3c(C)noc3C)C2)nc1 (stereo not drawn) is ____.
OUTPUT: -9.88%

INPUT: For the compound CC(CN1CCCCCC1)NCc1nncn1C1CCCCC1 (stereo not drawn) , what cytotoxicity at 10 µM is on record?
OUTPUT: -5.59%
